# protocolText: Inhibition of WR99210-resistant form-2 Plasmodium falciparum N51I, C59R, N108S, I164L mutant expressed in Escherichia coli BL21(DE3) by Michaelis-Menten based competitive inhibition assay
parameterMeasured: Ki (nM)
A number alone suffices; assume nM.

CCc1nc(N)nc(N)c1-c1ccc(Cl)cc1 [PYRIMETHAMINE]	7.26

Value of measured Ki for the entry CC1(C)N=C(N)N=C(N)N1OCCCOc1cc(Cl)c(Cl)cc1Cl : 17.6

* * *

# protocolText: Inhibition of pyrimethamine-resistant form-1 Plasmodium falciparum N51I, C59R, S108N, I164L, D187A mutant expressed in Escherichia coli BL21(DE3) by Michaelis-Menten based competitive inhibition assay
parameterMeasured: Ki
# output: numeric value plus its unit

CCc1nc(N)nc(N)c1-c1ccc(Cl)cc1	0.00124 µM

Field: next molecule
Value of measured Ki for the entry CC1(C)N=C(N)N=C(N)N1OCCCOc1cc(Cl)c(Cl)cc1Cl : 0.514 µM

* * *

# protocolText: Inhibition of Plasmodium falciparum DHFR QM template N51I, C59R, S108N, I164L mutant expressed in Escherichia coli BL21(DE3) by Michaelis-Menten based competitive inhibition assay
compounds and their reported Ki

CC1(C)N=C(N)N=C(N)N1OCCCOc1cc(Cl)c(Cl)cc1Cl	859 nM

Value of measured Ki for the entry CCc1nc(N)nc(N)c1-c1ccc(Cl)cc1 : 1.9 nM
